experiment: RP, Thermo Scientific Acclaim RSLC 120 C18, 100 × 2.1 mm, 2.2 µm, 30 °C, 0.2 mL/min, estimated dead time 1.1 min; A: 90% water + 10% methanol + 0.01% formic acid + 5 mM ammonium formate, pH 3.61; B: methanol + 0.01% formic acid + 5 mM ammonium formate, pH 3.61; gradient (min/%B) 0/1 1/1 2/39 13/99.9 15/99.9 15.1/1 20.1/1; conditions: stereoisomer not certain
assay-readout: LC retention time (min)
Answers are plain numbers, in min.

For orientation, consider the following solved cases.
[[record]]
molecule = "CC12CCC3C(CC=C4CC(O)CCC43C)C1CCC2=O (stereo not drawn) [Dhydroepiandrosterone (DHEA) / Androstenolone]"
measured = 10.2

[[record]]
molecule = "COc1cc(OC)nc(NC(=O)NS(=O)(=O)c2ncccc2OCC(F)(F)F)n1"
measured = 8.11

[[record]]
molecule = "CCCCCn1cc(C(=O)C23CC4CC(CC(C4)C2)C3)c2ccccc21"
measured = 13.7

[[record]]
molecule = "CC(=O)C1(O)CCC2C3C=C(Cl)C4=CC(=O)C5CC5C4(C)C3CCC21C (stereo not drawn)"
measured = 10.1

[[record]]
molecule = "C=CC1(C)CC(OC(=O)CSCCN(CC)CC)C2(C)C(C)CCC3(CCC(=O)C32)C(C)C1O (stereo not drawn)"
measured = 7.71

[[record]]
molecule = "COc1ccc(CCN2CCC(Nc3nc4ccccc4n3Cc3ccc(F)cc3)CC2)cc1"
measured = 8.03


Would you be so kind as to report LC retention time for each listed record?
1. CC(C)(C)c1ccc(CSc2cnn(C(C)(C)C)c(=O)c2Cl)cc1
2. CCCOC(=O)c1ccc(O)cc1

(A)
[13.4, 8.36]

---

assay: RP, Waters ACQUITY UPLC BEH C18, 100 × 2.1 mm, 1.7 µm, 35 °C, 0.35 mL/min, estimated dead time 0.63 min; A: water + 0.01% formic acid + 5 mM ammonium formate, pH 3.71; B: acetonitrile + 0.01% formic acid, pH 3.71; gradient (min/%B) 0/5 0.5/5 16/95 16.1/99 19/99 19.1/5 21/5; conditions: stereoisomer not certain
assay-readout: LC retention time (min)
Give bare numbers, in min.

For orientation, consider the following solved cases.
[[record]]
compound = "Nc1ncnc2c1ncn2C1OC(CO)C(O)C1O (stereo unspecified)"
measured = 1.27

[[record]]
compound = "c1ccc2n[nH]nc2c1"
measured = 3.61

[[record]]
compound = "O=c1[nH]c2ccccc2s1"
measured = 5.76


Would you be so kind as to report LC retention time for each listed record?
1. CCN(C)C(=O)Oc1cccc(C(C)N(C)C)c1 (stereo unspecified)
2. COCCc1ccc(OCC(O)CNC(C)C)cc1 (stereo unspecified)
3. COc1cc2c(c(OC)c1OC)-c1ccc(OC)c(=O)cc1C(NC(C)=O)CC2 (stereo unspecified)
4. CC(=O)Nc1ccc(O)cc1
5. COc1cccc(C2(O)CCCCC2CN(C)C)c1 (stereo unspecified)
6. CCCCOc1ccc(CC(=O)NO)cc1
7. C=CC(N)CCC(=O)O (stereo unspecified)
8. CCCCCc1cc(O)c2c(c1)OC(C)(C)C1CCC(C)=CC21 (stereo unspecified)

(A)
1. 4.78
2. 4.79
3. 5.99
4. 2
5. 4.79
6. 7.21
7. 0.83
8. 15.1

---

test: RP, Thermo Scientific Acclaim RSLC 120 C18, 100 × 2.1 mm, 2.2 µm, 30 °C, 0.2 mL/min, estimated dead time 1.1 min; A: 90% water + 10% methanol + 0.01% formic acid + 5 mM ammonium formate, pH 3.61; B: methanol + 0.01% formic acid + 5 mM ammonium formate, pH 3.61; gradient (min/%B) 0/1 1/1 2/39 13/99.9 15/99.9 15.1/1 20.1/1; conditions: stereoisomer not certain
Note: every record was labeled by where its LC retention time sits among bucket A (below 5 min), bucket B (5 min to below 7 min), bucket C (7 min or more)

Worked examples, 5 compounds total:
[[record]]
compound = "CN(C)CCCC1(c2ccc(F)cc2)OCc2cc(C(N)=O)ccc21 (centres undefined) [Citalopram amide]"
class_name = "bucket B"

[[record]]
compound = "CCC1(c2cccc(O)c2)CCCCN(C)C1 (centres undefined) [Meptazinol]"
class_name = "bucket A"

[[record]]
compound = "O=C(c1cccc2ccccc12)c1nc2ccccc2n1CCCCCF [FUBIMINA]"
class_name = "bucket C"

[[record]]
compound = "COc1ccc2cccc(CCNC(C)=O)c2c1 [Agomelatine]"
class_name = "bucket C"

[[record]]
compound = "Nc1ccc2c(c1)C(c1ccccc1)=NCC(=O)N2 [Nitrazepam- 7-Amino]"
class_name = "bucket A"


Now for another entry.
(Q) Any idea which band NC(=O)N1c2ccccc2CC(O)c2ccccc21 (centres undefined) [Carbamazepine -10-Hydroxy] is in?
(A) bucket B

---

experiment: RP, Thermo Scientific Acclaim RSLC 120 C18, 100 × 2.1 mm, 2.2 µm, 30 °C, 0.2 mL/min, estimated dead time 1.1 min; A: 90% water + 10% methanol + 0.01% formic acid + 5 mM ammonium formate, pH 3.61; B: methanol + 0.01% formic acid + 5 mM ammonium formate, pH 3.61; gradient (min/%B) 0/1 1/1 2/39 13/99.9 15/99.9 15.1/1 20.1/1; conditions: stereoisomer not certain
Response field label: string, one of rule met (LC retention time strictly below 10 min) or rule not met.

[[record]]
compound = "CCOc1ccccc1OC(c1ccccc1)C1CNCCO1 (centres undefined)"
class_name = "rule met"

[[record]]
compound = "CC(=O)Oc1c(C)cc(OCC(O)CNC(C)C)c(C)c1C (centres undefined)"
class_name = "rule met"


(Q) Given the entry `CNC(=O)Oc1cc(C)c(S(C)(=O)=O)c(C)c1` , would its reported LC retention time be below 10 min?
(A) rule met

(Q) Given the entry `Cc1ccccc1-n1c(C)nc2ccccc2c1=O` , would its reported LC retention time be below 10 min?
(A) rule met

(Q) Given the entry COc1ccc(C(=O)c2ccccc2)c(O)c1 [Benzophenon 3 (=2-Hydroxy-4-methoxybenzophenon)] , would its reported LC retention time be below 10 min?
(A) rule not met

(Q) Given the entry `CCCn1c(C)c(C(=O)c2cccc3ccccc23)c2ccccc21` , would its reported LC retention time be below 10 min?
(A) rule not met

(Q) Given the entry `CCCc1nn(C)c2c(=O)[nH]c(-c3cc(C(=O)CN4CCCCC4)ccc3OCC)nc12` , would its reported LC retention time be below 10 min?
(A) rule met

---

I'd appreciate it if you could supply LC retention time values for the items below.
test: RP, Thermo Scientific Acclaim RSLC 120 C18, 100 × 2.1 mm, 2.2 µm, 30 °C, 0.2 mL/min, estimated dead time 1.1 min; A: water + 0.1% formic acid, pH 2.6; B: methanol + 0.1% formic acid, pH 2.6; gradient (min/%B) 0/10 4/50 17/95 25/95 25.1/10 30/10; details: stereoisomer not certain
Numbers only, in min.

Would you be so kind as to report LC retention time for each listed record?
1. CCNC(C)Cc1cccc(C(F)(F)F)c1 (configuration not stated)
2. CCC(C)C1OC2(C=CC1C)CC1CC(CC=C(C)C(OC3CC(OC)C(OC4CC(OC)C(NC)C(C)O4)C(C)O3)C(C)C=CC=C3COC4C(O)C(C)=CC(C(=O)O1)C34O)O2 (configuration not stated)

(A)
5.84
14.3

---

experiment: RP, Thermo Scientific Acclaim RSLC 120 C18, 100 × 2.1 mm, 2.2 µm, 30 °C, 0.2 mL/min, estimated dead time 1.1 min; A: 90% water + 10% methanol + 0.01% formic acid + 5 mM ammonium formate, pH 3.61; B: methanol + 0.01% formic acid + 5 mM ammonium formate, pH 3.61; gradient (min/%B) 0/1 1/1 2/39 13/99.9 15/99.9 15.1/1 20.1/1; conditions: stereoisomer not certain
I'd appreciate it if you could supply LC retention time values for the items below.
One number for each entry, in min.

For orientation, consider the following solved cases.
[[record]]
molecule = "CN(C)CCc1c[nH]c2ccc(O)cc12"
unit_of_measure = "min"
measured = 2.82

[[record]]
molecule = "CCOP(=S)(OCC)SCSc1ccc(Cl)cc1"
unit_of_measure = "min"
measured = 12.9


Would you be so kind as to report LC retention time for each listed record?
1. COc1nn(CSP(=S)(OC)OC)c(=O)s1
2. COC1=CC(=O)OC(C=Cc2ccccc2)C1 (stereo not given)
3. O=C(OCC(O)CO)c1ccccc1Nc1ccnc2cc(Cl)ccc12 (stereo not given)
4. CCN(CC)C(=O)SCc1ccccc1Cl
5. CC(=O)C1CCC2C3C=CC4=CC(=O)CCC4(C)C3CCC12C (stereo not given)
6. CCOc1cc(Oc2ccc(C(F)(F)F)cc2Cl)ccc1[N+](=O)[O-]
7. CCCC(NC)C(=O)c1ccccc1 (stereo not given)

(A)
1: 8.7; 2: 8.32; 3: 6.63; 4: 11.3; 5: 10.7; 6: 12.1; 7: 4.89
